Recorded RANKL fold change cf wt for the following binders
Target: T1, RANKL (human, UniProt O14788 140-317, limits assumed)
T1 construct: also called Rank ligand
T1 sequence (looked up): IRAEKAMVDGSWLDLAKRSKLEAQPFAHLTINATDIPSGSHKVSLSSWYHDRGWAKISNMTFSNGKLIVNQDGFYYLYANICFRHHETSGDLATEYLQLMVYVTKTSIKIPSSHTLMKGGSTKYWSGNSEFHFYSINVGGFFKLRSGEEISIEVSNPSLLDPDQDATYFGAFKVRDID
Experiment: ELISA on coated RANKL, Fc-linked dimers; EC50 ratio to OPG(22-194).Fc wt; reduction in binding (higher EC50)
EXPERIMENTAL_READOUT: RANKL fold change cf wt (fold)

BINDER	TEST_RESULT
OVP I115W (Fc fusion, Tested as C-terminal Fc-linked dimer with FLAG tag, from HEK 293 EBNA cells; signal peptide 1-21 processed; not shown: human Fc domain of vector pAPEX-3.Fc; C-terminal FLAG tag) ETFPPKYLHYDEETSHQLLCDKCPPGTYLKQHCTAKWKTVCAPCPDHYYTDSWHTSDECLYCSPVCKELQYVKQECNRTHNRVCECKEGRYLEWEFCLKHRSCPPGFGVVQAGTPERNTVCKRCPDGFFSNETSSKAPCRKHTNCSVFGLLLTQKGNATHDNICSGNSESTQK	1.4
OVP I115M, R122D (Fc fusion, Tested as C-terminal Fc-linked dimer with FLAG tag, from HEK 293 EBNA cells; signal peptide 1-21 processed; also called I115M plus: R122D; not shown: human Fc domain of vector pAPEX-3.Fc; C-terminal FLAG tag) ETFPPKYLHYDEETSHQLLCDKCPPGTYLKQHCTAKWKTVCAPCPDHYYTDSWHTSDECLYCSPVCKELQYVKQECNRTHNRVCECKEGRYLEMEFCLKHDSCPPGFGVVQAGTPERNTVCKRCPDGFFSNETSSKAPCRKHTNCSVFGLLLTQKGNATHDNICSGNSESTQK	6
